Target: UniProt P02769
Sequence (P02769 whole entry): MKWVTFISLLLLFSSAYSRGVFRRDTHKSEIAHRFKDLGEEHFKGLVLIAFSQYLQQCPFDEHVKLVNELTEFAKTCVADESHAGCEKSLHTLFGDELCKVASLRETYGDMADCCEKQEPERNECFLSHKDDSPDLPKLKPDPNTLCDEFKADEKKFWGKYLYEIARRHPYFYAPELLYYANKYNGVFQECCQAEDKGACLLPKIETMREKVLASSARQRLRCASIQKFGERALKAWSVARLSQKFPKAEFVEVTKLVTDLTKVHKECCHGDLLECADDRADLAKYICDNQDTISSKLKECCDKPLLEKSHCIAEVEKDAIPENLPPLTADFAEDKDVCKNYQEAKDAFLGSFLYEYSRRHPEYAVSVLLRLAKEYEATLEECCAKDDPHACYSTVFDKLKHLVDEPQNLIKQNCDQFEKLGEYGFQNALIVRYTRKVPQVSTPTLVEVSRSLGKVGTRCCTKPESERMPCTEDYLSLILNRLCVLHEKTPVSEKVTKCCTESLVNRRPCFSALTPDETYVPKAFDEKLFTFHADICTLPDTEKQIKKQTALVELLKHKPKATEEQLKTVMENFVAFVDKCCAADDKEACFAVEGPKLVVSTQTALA
Assay: Binding affinity to Bos taurus (bovine) serum albumin after 5 min at 25 degC by Stern-Volmer plot analysis
Format: ADME
Conditions: cattle, isolated protein
RECORDED_ENDPOINT: K (×10⁶ /M)

{"columns": ["MOLECULE", "RECORDED_ENDPOINT", "UNIT", "RESULT_NUMBER"],
 "data": [
  ["CCCCCCCCCCCCCC(=O)CC(O)S(=O)(=O)[O-].[Na+] (stereo not given) [TETRADECANOYL ACETAL SODIUM SULFITE]", "K", "×10⁶ /M", 1360.5],
  ["CCCCCCCC(=O)CC(O)S(=O)(=O)[O-].[Na+] (stereo not given) [OCTANOYL ACETAL SODIUM SULFITE]", "K", "×10⁶ /M", 691.83],
  ["CCCCCC(=O)CC(O)S(=O)(=O)[O-].[Na+] (stereo not given) [HEXANOYL ACETAL SODIUM SULFITE]", "K", "×10⁶ /M", 6.7081]
]}

[A] CCCCCCCCCC(=O)CC(O)S(=O)(=O)[O-].[Na+] (stereo not given) [SODIUM HOUTTUYFONATE]
[B] CCCCCCCCCCCC(=O)CC(O)S(=O)(=O)[O-].[Na+] (stereo not given) [DODECANOYL ACETAL SODIUM SULFITE]
Just curious, which one has the larger K reading, A or B ? Refer to your chosen item by its label in the answer. A
(A: 84.606 ×10⁶ /M, B: 0.197 ×10⁶ /M)
